# experiment-summary: Inhibition of Saccharomyces sp. alpha-glucosidase assessed as p-nitrophenol release
Listing of entries alongside the reported pIC50.
Please note pIC50 is a logarithmic value: minus log10 of concentration in mol/L. Answer with that number alone.

QUERY: Bench note: what pIC50 did O=C1c2c(Cl)c(Cl)c(Cl)c(Cl)c2C(=O)N1c1ccc(CCc2ccc(O)cc2)cc1 show?
RESULT: 4.64

QUERY: Consider the molecule shown here: COc1ccc(CCc2cccc(N3C(=O)c4c(Cl)c(Cl)c(Cl)c(Cl)c4C3=O)c2)cc1OC What is its recorded pIC50?
RESULT: 4.08

QUERY: Fill in: pIC50 of O=C1c2ccccc2C(=O)N1c1ccccc1CCc1ccccc1 is ___
RESULT: 4.79

QUERY: Given O=C1c2c(Cl)c(Cl)c(Cl)c(Cl)c2C(=O)N1c1cccc(/C=C/c2ccc(O)c(O)c2)c1 , state its recorded pIC50.
RESULT: 4.89
